Source listed as patent US20080214808A1.

experiment: Gamma irradiation of compound (I) in different containers, amounts of (I) and breakdown products by HPLC
Type: physicochemical
recorded conditions: Glass container, gamma dose 15 kGY
Excerpt: During pharmaceutical development, aseptic formulations of paliperidone palmitate (I) were initially obtained by gamma irradiation. Compound (I) was irradiated with various doses of gamma rays in different containers.
property label: amount of breakdown product (III) (%)
Numbers only, in %.

Can you look up the measured amount of breakdown product (III) of CCCCCCCCCCCCCCCC(=O)OC1CCCn2c1nc(C)c(CCN1CCC(c3noc4cc(F)ccc34)CC1)c2=O (stereo not shown) for me?
0.23

###

experiment: Gamma irradiation of compound (I) in different containers, amounts of (I) and breakdown products by HPLC
Type: physicochemical
recorded conditions: Plastic container, gamma dose 25 kGY
From the text: During pharmaceutical development, aseptic formulations of paliperidone palmitate (I) were initially obtained by gamma irradiation. Compound (I) was irradiated with various doses of gamma rays in different containers.
property label: amount of breakdown products (II) [sum of (II-a) and (II-b)] (%)
Numbers only, in %.

I'd like to know its amount of breakdown products (II) [sum of (II-a) and (II-b)]. The compound in question is CCCCCCCCCCCCCCCC(=O)OC1CCCn2c1nc(C)c(CCN1CCC(c3noc4cc(F)ccc34)CC1)c2=O (stereo not shown)
0.06
